# reported EC50 at Glucagon Receptor; entries follow
- target_of_assay: glucagon receptor (human, UniProt P47871 26-477)
- Sequence (P47871 26-477): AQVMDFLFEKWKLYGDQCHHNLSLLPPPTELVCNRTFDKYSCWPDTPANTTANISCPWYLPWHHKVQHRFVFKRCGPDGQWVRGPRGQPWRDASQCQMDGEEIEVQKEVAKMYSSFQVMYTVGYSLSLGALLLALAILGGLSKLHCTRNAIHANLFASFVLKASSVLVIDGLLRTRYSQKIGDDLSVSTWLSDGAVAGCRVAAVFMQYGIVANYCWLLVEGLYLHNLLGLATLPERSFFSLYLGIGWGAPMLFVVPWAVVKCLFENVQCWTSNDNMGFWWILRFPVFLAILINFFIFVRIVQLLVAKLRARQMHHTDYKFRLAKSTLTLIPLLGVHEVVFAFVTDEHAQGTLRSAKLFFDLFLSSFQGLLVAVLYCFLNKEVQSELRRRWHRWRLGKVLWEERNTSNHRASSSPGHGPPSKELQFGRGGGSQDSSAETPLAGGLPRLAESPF
- test_summary: cell-based or functional assay
Numbered stars: 1 amine (or outer) side, 2 acyl side, 3 side chain; on linkers, the order of the positions; unused ones are H or OH. Square brackets hold non-standard residues; d marks the D form. Side chains are listed from the residue outwards. Ends that are not written are not given here. * marks the point of attachment. γGlu = O=C(O)[C@H](CCC(=O)[*:2])N[*:1]; Palmitoyl = CCCCCCCCCCCCCCCC(=O)*; Myristoyl = CCCCCCCCCCCCCC(=O)*; Aib = CC(C)(N)C(=O)O
# number only, unit nM dropped from output

H[Aib]QGTFTSDK([Ala-Ala-Palmitoyl])SKYLD[Aib]RRAQDFVQWLMNT-NH2 [Peptide 82 (Table 10)]
0.024
H[Aib]QGTFTSDK([Ala-Ala-Palmitoyl])SKYLD[Aib]RRAQDFVC(PEG 40 kDa)WLMNT-NH2 [Peptide 79* (Table 10)]
0.102
H[Aib]QGTFTSDK(Palmitoyl)SKYLD[Aib]RRAQDFVQWLMNT-NH2 [Peptide 50 (Table 10)]
0.572

Prompt: If you can, please state the reported EC50 at Glucagon Receptor value of H[Aib]QGTFTSDK([γGlu-γGlu-Palmitoyl])SKYLD[Aib]RRAQDFVC(PEG 40 kDa)WLMNT-NH2 [Peptide 80* (Table 10)] .
Completion: 0.108

Prompt: Entry under review: H[Aib]QGTFTSDK([Pro-Pro-Palmitoyl])SKYLD[Aib]RRAQDFVQWLMNT-NH2 [Peptide 87 (Table 10)] . Reported EC50 at Glucagon Receptor?
Completion: 0.017

Prompt: What measured EC50 at Glucagon Receptor goes with H[Aib]QGTFTSDK(Myristoyl)SKYLD[Aib]RRAQDFVC(PEG 40 kDa)WLMNT-NH2 [Peptide 77* (Table 10)] ?
Completion: 21.9

Prompt: Name the recorded EC50 at Glucagon Receptor for H[Aib]QGTFTSDK([Ala-Ala-Myristoyl])SKYLD[Aib]RRAQDFVC(PEG 40 kDa)WLMNT-NH2 [Peptide 81* (Table 10)] .
Completion: 0.597

Prompt: So what does the record say about EC50 at Glucagon Receptor for H[Aib]QGTFTSDK([γGlu-γGlu-Myristoyl])SKYLD[Aib]RRAQDFVC(PEG 40 kDa)WLMNT-NH2 [Peptide 78* (Table 10)] ?
Completion: 0.319
